These data points were gathered from paper PMC9062502.

- SYSTEM: xanthine oxidase (Bos taurus, UniProt P80457)
- Sequence (P80457 2-1332): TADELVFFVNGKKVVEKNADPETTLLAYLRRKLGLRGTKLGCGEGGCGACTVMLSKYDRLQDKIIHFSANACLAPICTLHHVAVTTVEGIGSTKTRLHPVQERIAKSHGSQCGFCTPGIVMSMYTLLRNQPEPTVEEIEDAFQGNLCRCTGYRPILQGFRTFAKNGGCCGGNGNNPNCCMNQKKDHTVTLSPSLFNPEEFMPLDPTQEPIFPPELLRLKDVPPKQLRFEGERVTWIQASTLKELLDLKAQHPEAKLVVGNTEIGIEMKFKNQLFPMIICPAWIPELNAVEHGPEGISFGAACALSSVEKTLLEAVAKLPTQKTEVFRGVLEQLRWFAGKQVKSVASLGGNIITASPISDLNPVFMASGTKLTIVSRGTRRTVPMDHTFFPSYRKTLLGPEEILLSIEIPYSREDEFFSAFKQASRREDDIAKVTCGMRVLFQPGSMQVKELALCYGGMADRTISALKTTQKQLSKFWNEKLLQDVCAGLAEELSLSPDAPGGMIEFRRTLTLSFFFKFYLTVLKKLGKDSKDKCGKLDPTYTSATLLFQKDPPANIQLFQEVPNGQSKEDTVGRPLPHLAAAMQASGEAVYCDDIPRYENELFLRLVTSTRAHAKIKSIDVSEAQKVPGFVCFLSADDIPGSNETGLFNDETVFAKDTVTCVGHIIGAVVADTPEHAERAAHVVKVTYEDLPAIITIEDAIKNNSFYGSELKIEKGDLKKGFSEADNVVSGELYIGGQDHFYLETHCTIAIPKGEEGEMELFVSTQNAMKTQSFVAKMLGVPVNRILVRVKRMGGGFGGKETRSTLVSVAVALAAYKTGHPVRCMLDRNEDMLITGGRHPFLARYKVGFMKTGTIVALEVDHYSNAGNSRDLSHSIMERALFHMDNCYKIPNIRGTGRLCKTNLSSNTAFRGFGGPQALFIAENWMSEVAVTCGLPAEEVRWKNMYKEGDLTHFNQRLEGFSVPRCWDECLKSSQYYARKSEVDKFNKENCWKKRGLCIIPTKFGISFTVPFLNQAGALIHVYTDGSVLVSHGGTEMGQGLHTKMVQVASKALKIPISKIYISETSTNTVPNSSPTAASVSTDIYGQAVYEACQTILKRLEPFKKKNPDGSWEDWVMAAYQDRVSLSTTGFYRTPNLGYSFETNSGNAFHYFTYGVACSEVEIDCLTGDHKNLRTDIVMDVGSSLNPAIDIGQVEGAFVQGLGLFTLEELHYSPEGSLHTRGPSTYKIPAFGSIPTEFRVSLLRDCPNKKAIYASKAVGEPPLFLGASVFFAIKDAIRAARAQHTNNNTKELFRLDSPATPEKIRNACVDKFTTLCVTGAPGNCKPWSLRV
- METHOD_NOTES: Fluorescence-quenching binding to xanthine oxidase
- CONDITIONS: double-logarithm formula, 25 °C
TEST_READOUT: Affinity n (number of binding sites per enzyme molecule)

COMPOUND: COc1ccc(-c2cc(=O)c3c(OC)c(OC)c(OC)c(OC)c3o2)cc1OC
EXPERIMENTAL_RESULT: 2.8371
//
COMPOUND: COc1c(O)cc2occ(-c3ccc(O)cc3)c(=O)c2c1O
EXPERIMENTAL_RESULT: 0.6283

Requested read-out: Affinity n (number of binding sites per enzyme molecule). Entry: `C[C@@H]1O[C@@H](O[C@H]2[C@H](Oc3cc(O)c4c(c3)O[C@H](c3ccc(O)cc3)CC4=O)O[C@H](CO)[C@@H](O)[C@@H]2O)[C@H](O)[C@H](O)[C@H]1O` 1.6838

Now the same for O=C(O[C@@H]1Cc2c(O)cc(O)cc2O[C@@H]1c1cc(O)c(O)c(O)c1)c1cc(O)c(O)c(O)c1 [EGCG (2,3-cis), (−)-epigallocatechin gallate] 1.2461
